- Tested Target: CDK4 protein (Homo sapiens)
- Construct: host or cells: OVCAR3
- Sequence (P11802 whole entry): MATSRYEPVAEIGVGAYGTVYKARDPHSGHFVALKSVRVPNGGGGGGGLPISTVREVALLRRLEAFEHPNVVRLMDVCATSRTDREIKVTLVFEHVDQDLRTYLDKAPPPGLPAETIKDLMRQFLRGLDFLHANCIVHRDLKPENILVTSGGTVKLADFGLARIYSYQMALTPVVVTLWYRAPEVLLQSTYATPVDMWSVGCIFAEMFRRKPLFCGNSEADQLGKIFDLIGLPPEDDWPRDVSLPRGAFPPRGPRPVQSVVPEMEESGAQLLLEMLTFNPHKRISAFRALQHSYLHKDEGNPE
- Method Summary: CDK4 protein degradation in OVCAR3 cells (Western blot)
- Format: cell-based
- Conditions: OVCAR-3, 50 nM test compound, 24 h, read-out: level of CDK4 protein degradation
Property: percent CDK4 protein degradation at 0.05 µM

Cc1nc2c(F)cc(-c3nc(NC4CCN(S(=O)(=O)C5CCN(C6CCN(C7CN(c8cc9c(cc8F)C(=O)N(C8CCC(=O)NC8=O)C9=O)C7)CC6)CC5)CC4)ncc3F)cc2n1C(C)C (stereo not drawn)	≤ 10%
Cc1nc2c(F)cc(-c3nc(Nc4ccc(S(=O)(=O)C5CCN(C6CCN(C7CN(c8cc9c(cc8F)C(=O)N(C8CCC(=O)NC8=O)C9=O)C7)CC6)CC5)cc4)ncc3F)cc2n1C(C)C (stereo not drawn)	≤ 10%
C[C@@]1(O)CCC[C@H]1n1c(=O)ccc2cnc(NC3CCN(S(=O)(=O)C4CCN(C5CC6(CCN(c7cc8c(cc7F)C(=O)N(C7CCC(=O)NC7=O)C8=O)CC6)C5)CC4)CC3)nc21 (stereo partly drawn)	11 to 30%
